- Measurement target: P. falciparum apicoplast DNA polymerase (Pf-apPOL) (Plasmodium falciparum, UniProt Q8ILY1)
- Sequence (Q8ILY1 entry or part of it): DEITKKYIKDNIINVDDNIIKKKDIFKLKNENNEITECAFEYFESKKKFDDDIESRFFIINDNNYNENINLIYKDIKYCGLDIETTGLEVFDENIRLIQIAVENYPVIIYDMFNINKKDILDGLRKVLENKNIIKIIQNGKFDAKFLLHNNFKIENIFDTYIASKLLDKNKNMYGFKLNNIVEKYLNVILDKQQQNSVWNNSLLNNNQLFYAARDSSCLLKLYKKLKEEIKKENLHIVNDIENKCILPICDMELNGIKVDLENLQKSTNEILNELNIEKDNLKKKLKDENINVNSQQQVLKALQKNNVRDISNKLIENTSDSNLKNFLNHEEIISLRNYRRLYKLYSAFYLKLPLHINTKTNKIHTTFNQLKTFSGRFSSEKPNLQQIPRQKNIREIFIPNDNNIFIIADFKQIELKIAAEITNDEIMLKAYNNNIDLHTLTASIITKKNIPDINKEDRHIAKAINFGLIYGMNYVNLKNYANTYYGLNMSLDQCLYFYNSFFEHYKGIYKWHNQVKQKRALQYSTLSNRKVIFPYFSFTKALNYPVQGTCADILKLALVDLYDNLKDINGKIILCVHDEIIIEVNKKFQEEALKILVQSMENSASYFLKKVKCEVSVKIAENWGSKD
- Test details: Fluorescence-based high-throughput DNA polymerase assay (molecular beacon), primary screen and dose-response
- Format: biochemical
- Assay setup: DRC-2; read at 5'; concentration 10
Property label: % inhibition Apo pol 5' 10 (%)
Note: unit % is implicit; provide only the numeric part.

Need % inhibition Apo pol 5' 10 of O=C1CSC2=NC3=C(CCc4ccccc43)C(c3cccs3)N12 (stereo not shown) [Molecule 59, O=C1CSC2=NC3=C(C(N12)c1cccs1)CCc1c3cccc1] , thanks.
28

Consider next the compound Cc1nc(C)c2c(n1)N(CC1CCCCC1)C(=O)CC2 [KU0218606] in the same way.
28

Consider next the compound Cn1nc(-c2nnc(-c3ccccc3F)o2)c2c1CCN(C(=O)c1ccccc1Cl)C2 [Molecule 34] in the same way.
24

Consider next the compound C#CC(C=CC)OC(=O)c1ccccc1C(=O)O (stereo not shown) [Molecule 61, CC=CC(OC(=O)c1ccccc1C(=O)O)C#C] in the same way.
33
